Numbers sourced from BindingDB's records for doi:10.1016/j.bmcl.2012.12.095.

- METHOD SUMMARY: Antagonist activity at CCR1 receptor in human THP1 cells assessed as inhibition of MIP-1alpha-induced chemotaxis after 2 hrs by fluorescence assay
READOUT KIND: IC50 (µM)
Please state the figure in µM; there is no need to write the unit.

Q: Determine its reported IC50: CC(=O)Nc1ccc(O)cc1OC[C@@H](N)CN1CCC2(CC1)Cc1ccccc1O2
Ans: 0.068
